# Test system: MCF-7
# experiment_description: 3H-TdR incorporation at 72 hr (24 hr drug exposure, wash, 48 hr)
# Type: cell-based, Human
# condition_info: read-out: IC50 in μM (3H-TdR incorporation at 72 hr) MCF-7 24 h, MCF-7 Human Breast Carcinoma, 72 hr assay
value_kind: IC50

The examples below pair each entry with its known result.
Cc1cccc(C)c1C(=O)OC[C@H]1OC[C@@H](n2ccc(N)nc2=O)O1 ... 3.6 µM
O=C(Nc1ccn([C@@H]2CO[C@H](CO)O2)c(=O)n1)C1(c2ccccc2)CCCC1 ... 18 µM
Nc1ccn([C@@H]2CO[C@H](COC(=O)c3ccc(Cl)c(Cl)c3)O2)c(=O)n1 ... 0.0042 µM

# next molecule below
Measured on MCF-7, "O=c1nc(NCNc2ccccc2)ccn1[C@@H]1CO[C@H](CO)O1" has a documented IC50 of 0.036 µM

* * *

# Test system: CEM cells
# experiment_description: CellTiter 96 cell proliferation assay (chemosensitivity), 48 h
# Format: cell-based
# condition_info: Homo sapiens, CCRF-CEM, read-out: EC50 (50% of the dose response curve); CEM cells, 48 h exposure
Below, each of the compounds is paired with its reported pEC50 value.
pEC50 here: minus log base 10 of the concentration, concentration in moles per litre.

Nc1ccn([C@@H]2CO[C@H](CO)O2)c(=O)n1 ... 6.80

# next compound below
// sample Nc1ccn([C@@H]2O[C@H](CO)[C@@H](O)C2(F)F)c(=O)n1 [Gemcitabine, gemcitabine, reference compound] , its pEC50 was 7.70

* * *

# System: SF-268
# experiment_description: 3H-TdR (3H-thymidine) incorporation assay at 72 hr
# Assay type: cell-based, Human
# condition_info: read-out: IC50 SF-268 24 h; 24 h drug exposure, wash, another 48 hr; 3H-TdR incorporation at 72 hr; listed as Cytosine Arabinoside
value_kind: IC50 (nM)
The reply should contain only the number, in nM.

// sample Nc1ccn([C@@H]2O[C@H](CO)[C@@H](O)[C@@H]2O)c(=O)n1 [Cytarabine, cytarabine, reference compound] , its IC50 was 300

* * *

# Test system: MCF-7
# experiment_description: 3H-TdR incorporation at 72 hr (24 hr drug exposure, wash, 48 hr)
# Assay type: cell-based, Human
# condition_info: Homo sapiens, MCF7, read-out: IC50 in μM (3H-TdR incorporation at 72 hr) MCF-7 24 h, MCF-7 Human Breast Carcinoma, 72 hr assay
Threshold 0.2 µM: IC50 strictly smaller gives MET, otherwise NOT MET.

Take a look at these entries with their results.
CC(C)C[C@H](NC(=O)OCc1ccccc1)C(=O)Nc1ccn([C@@H]2CO[C@H](CO)O2)c(=O)n1 ... MET
CC(=O)Oc1ccc(COC(=O)Nc2ccn([C@@H]3CO[C@H](COC(=O)OCc4ccc(OC(C)=O)cc4)O3)c(=O)n2)cc1 ... MET
C#CCN(CC#C)c1ccn([C@@H]2CO[C@H](CO)O2)c(=O)n1 ... NOT MET
CC(C)(C)OC(=O)N(CCCCCCNC(=O)OC[C@H]1OC[C@@H](n2ccc(N)nc2=O)O1)Cc1ccccc1 ... NOT MET
CCCCCc1ccc(OC(=O)Nc2ccn([C@@H]3CO[C@H](CO)O3)c(=O)n2)cc1 ... MET
CCCCCCCC/C=C\CCCCCCCC(=O)Nc1ccn([C@@H]2CO[C@H](CO)O2)c(=O)n1 ... MET
O=C(CCCCCCCc1ccccc1)Nc1ccn([C@@H]2CO[C@H](CO)O2)c(=O)n1 ... MET
CCCCC/C=C\C/C=C\CCCCCCCC(=O)Nc1ccn([C@@H]2CO[C@H](CO)O2)c(=O)n1 ... MET

Field: below-cutoff. Rule: recorded IC50 strictly less than 0.2 µM. Subject: "CCOC(OCC)(OCC)OC[C@H]1OC[C@@H](n2ccc(N)nc2=O)O1"
NOT MET

Field: below-cutoff. Rule: recorded IC50 strictly less than 0.2 µM. Subject: "Nc1ccn([C@@H]2CO[C@H](COC(=O)c3ccccc3Cl)O2)c(=O)n1"
MET

Field: below-cutoff. Rule: recorded IC50 strictly less than 0.2 µM. Subject: "CCCCC[C@]12CC[C@](C(=O)Nc3ccn([C@@H]4CO[C@H](CO)O4)c(=O)n3)(CC1)CC2"
MET

* * *

# System: SF-268
# experiment_description: 3H-TdR incorporation at 72 hr (24 hr drug exposure, wash, 48 hr)
# Assay type: cell-based, Human
value_kind: IC50 (nM)
The reply should contain only the number, in nM.

// sample "O=c1nc(NS(=O)(=O)c2ccc([N+](=O)[O-])cc2[N+](=O)[O-])ccn1[C@@H]1CO[C@H](CO)O1" , its IC50 was 2400

* * *

# System: SF-268
# experiment_description: 3H-TdR (3H-thymidine) incorporation assay at 72 hr
# Type: cell-based, Human
# condition_info: read-out: IC50 SF-268 24 h; 24 h drug exposure, wash, another 48 hr; 3H-TdR incorporation at 72 hr
value_kind: IC50 (nM)
The reply should contain only the number, in nM.

The examples below pair each entry with its known result.
CCOC(OCC)OC[C@H]1OC[C@@H](n2ccc(N)nc2=O)O1 [Compound 39] ... 390
COC(OC)(OC[C@H]1OC[C@@H](n2ccc(N)nc2=O)O1)c1ccccc1 [Compound 139] ... 1700
Nc1ccn([C@@H]2CO[C@H](COC(=O)Oc3ccccc3)O2)c(=O)n1 [Compound 42] ... 26
Nc1ccn([C@@H]2CO[C@H](COC(=O)CCCCCNCc3ccccc3)O2)c(=O)n1 [Compound 84] ... 360
CCCCC(C)(C)C(=O)OC[C@H]1OC[C@@H](n2ccc(/N=C\N(C)C)nc2=O)O1 [Compound 72] ... 75
CC(C)CCCCC(=O)Nc1ccn([C@@H]2CO[C@H](CO)O2)c(=O)n1 [Compound 277] ... 190

# next molecule below
// sample CCCCCCCCCCNC(=O)OC[C@H]1OC[C@@H](n2ccc(N)nc2=O)O1 [Compound 137] , its IC50 was 16000

* * *

# Test system: MCF-7
# experiment_description: MTT assay at 72 hr (24 hr drug exposure, wash, 48 hr)
# Format: cell-based
# condition_info: read-out: IC50 MCF-7 24 h; MTT at 72 hr, 24 h exposure, single experiment
Below, each of the compounds is paired with its reported pIC50 value.
pIC50 here: minus log base 10 of the concentration, concentration in moles per litre.

CC(C)C[C@H](N)C(=O)Nc1ccn([C@@H]2CO[C@H](CO)O2)c(=O)n1 ... 4.68

Measured on MCF-7, "COc1ccc(C(OC[C@H]2OC[C@@H](n3ccc(N)nc3=O)O2)(c2ccc(OC)cc2)c2ccc(OC)cc2)cc1" has a documented pIC50 of 5.64

* * *

# System: CEM/ARAC8C cells
# experiment_description: CellTiter 96 cell proliferation assay (chemosensitivity), 48 h
# Format: cell-based
# condition_info: read-out: EC50 (50% of the dose response curve); CEM/ARAC8C cells, 48 h exposure
Below, each of the molecules is paired with its reported EC50 value.
Hey, just the number and the unit after it is fine.

Nc1ccn([C@@H]2O[C@H](CO)[C@@H](O)C2(F)F)c(=O)n1 [Gemcitabine, gemcitabine, reference compound] ... 8.63 µM

# next molecule below
Measured on CEM/ARAC8C cells, "Nc1ccn([C@@H]2CO[C@H](CO)O2)c(=O)n1" has a documented EC50 of 1.18 µM

* * *

Below, each of the molecules is paired with its reported log10 IC50 value.
# System: MCF-7
# experiment_description: 3H-TdR incorporation at 72 hr (24 hr drug exposure, wash, 48 hr)
# Format: cell-based, Human
# condition_info: Homo sapiens, MCF7, read-out: IC50 in μM (3H-TdR incorporation at 72 hr) MCF-7 24 h, MCF-7 Human Breast Carcinoma, 72 hr assay
Quick note: numbers are log10 of IC50, with µM as the unit.

O=c1nc(NS(=O)(=O)c2ccc([N+](=O)[O-])cc2[N+](=O)[O-])ccn1[C@@H]1CO[C@H](CO)O1 [Compound 188] ... 0.48

Measured on MCF-7, Nc1ccn([C@@H]2CO[C@H](COC(=O)c3ccccc3-c3ccccc3)O2)c(=O)n1 [Compound 209] has a documented log10 IC50 of 0.11

Measured on MCF-7, CC(C)C(C(=O)Nc1ccn([C@@H]2CO[C@H](CO)O2)c(=O)n1)c1ccccc1 (stereo partly drawn) [Compound 249] has a documented log10 IC50 of -0.11

* * *

# Test system: CCRF-CEM
# experiment_description: 3H-TdR (3H-thymidine) incorporation assay at 72 hr
# Type: cell-based
# condition_info: read-out: IC50 CCRF-CEM 24 h; 24 h drug exposure, wash, another 48 hr; 3H-TdR incorporation at 72 hr; HYDROCHLORIDE
value_kind: pIC50
pIC50 here: minus log base 10 of the concentration, concentration in moles per litre.

// sample CC(C(=O)OC[C@H]1OC[C@@H](n2ccc(N)nc2=O)O1)c1ccccc1.Cl (stereo partly shown) [Compound 106, HYDROCHLORIDE] , its pIC50 was 8.00
